# studyTarget: T1, human IL-4Rα (human, UniProt P24394 26-232)
# T1 construct: also called Hu IL-4Rα; hIL-4Rα
# T1 sequence: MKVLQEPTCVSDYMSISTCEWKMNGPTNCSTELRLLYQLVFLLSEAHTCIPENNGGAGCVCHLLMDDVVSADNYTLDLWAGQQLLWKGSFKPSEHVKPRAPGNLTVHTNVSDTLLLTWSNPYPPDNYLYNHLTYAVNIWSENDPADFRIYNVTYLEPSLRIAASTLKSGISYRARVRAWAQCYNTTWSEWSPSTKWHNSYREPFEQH
# measurementProtocol: SPR, Carterra LSA;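 also: antibodies captured on an anti-human Fc sensor chip, antigen injected at several concentrations, association and dissociation rates fitted with a 1:1 Langmuir model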
reportedMetric: KD Relative to Dupilumab
Reply briefly: the number, and no unit.

Worked cases, KD Relative to Dupilumab given:
1) Construct 19 (mAb427) (antibody, IgG4, V domains shown, VH/VL only) VH: EVQLVESGGGLEQPGGSLRLSCAGSGFTFRTYAMTWVRQAPGKGLEWVSSISGSGDNTYYADSVKGRFTISRDNSKNTLYLQMNSLRAEDTAVYYCAKDRVSITIRPRYYGLDVWGQGTTVTVSS VL: DIVMTQSPLSLPVTPGEPASISCTSSQSLLYSIGYNYVDWYLQKSGQSPQLLIYLGNKRASGVPDRFSGSGSGTDFTLKISRVEAEDVGFYYCMQALGSPYTFGQGTKLEIK
3.19
2) Construct 45 (mAb494) (antibody, IgG4, V domains shown, VH/VL only) VH: EVQLVESGGGLEQPGGSLRLSCAGSGFTFRDFAMTWVRQAPGKGLEWVSSISGSGDGTYYADSVKGRFTISRDNSKNTLYLQMNSLRAEDTAVYYCAKDRVSITIRPRYYGLDVWGQGTTVTVSS VL: DIVMTQSPLSLPVTPGEPASISCTASQSLLYSIGYNYVDWYLQKSGQSPQLLIYLGNNRATGVPDRFSGSGSGTDFTLKISRVEAEDVGFYYCMQSLQTPYTFGQGTKLEIK
0.96

Please examine the following record next.
Item Construct 20 (mAb428) (antibody, IgG4, V domains shown, VH/VL only) VH: EVQLVESGGGLEQPGGSLRLSCAGSGFTFRDFAMTWVRQAPGKGLEWVSSISGSGDNTYYADSVKGRFTISRDNSKNTLYLQMNSLRAEDTAVYYCAKDRLSITVRPRYYGLDVWGQGTTVTVSS VL: DIVMTQSPLSLPVTPGEPASISCTSSQSLLYSIGYNYVDWYLQKSGQSPQLLIYLGNKRASGVPDRFSGSGSGTDFTLKISRVEAEDVGFYYCMQSLQTPYVFGQGTKLEIK : provide KD Relative to Dupilumab
1.41

Numbers sourced from patent US20260193366A1.
